src = ChEMBL document CHEMBL1132335

- studyTarget: Endothelin receptor type B (Homo sapiens)
- Sequence (P24530 whole entry): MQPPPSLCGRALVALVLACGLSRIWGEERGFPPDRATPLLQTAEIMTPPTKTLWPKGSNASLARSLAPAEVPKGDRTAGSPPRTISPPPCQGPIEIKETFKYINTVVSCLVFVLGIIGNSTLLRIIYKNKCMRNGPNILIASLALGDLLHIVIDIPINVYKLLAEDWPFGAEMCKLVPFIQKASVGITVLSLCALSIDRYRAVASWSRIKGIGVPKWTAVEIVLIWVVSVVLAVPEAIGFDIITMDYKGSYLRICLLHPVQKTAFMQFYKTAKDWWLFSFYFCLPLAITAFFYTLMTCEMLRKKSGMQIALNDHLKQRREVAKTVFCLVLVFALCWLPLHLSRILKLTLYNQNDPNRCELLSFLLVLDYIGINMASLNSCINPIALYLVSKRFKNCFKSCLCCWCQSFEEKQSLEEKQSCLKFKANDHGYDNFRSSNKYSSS
- methodDescription: Inhibition of [125I]ET-3 (ETB assay) binding to human cloned Endothelin B receptor in CHO cells
Provide the recorded Ki for the entries that follow.
Write down the numeric answer in µM and omit the unit.

# get_value(readout='Ki', item= Cc1cc(C)nc(OC(C(=O)O)C(OCCc2ccc(C(=O)O)cc2)(c2ccccc2)c2ccccc2)n1 (centres undefined) )
0.115

# get_value(readout='Ki', item= COc1ccc(OC(c2ccccc2)(c2ccccc2)C(Oc2nc(C)cc(C)n2)C(=O)O)cc1OC (centres undefined) )
0.06

# get_value(readout='Ki', item= COc1cc(C)nc(OC(C(=O)O)C(OCCc2ccc(OC)c(OC)c2)(c2ccccc2)c2ccccc2)n1 (centres undefined) )
0.0147

# get_value(readout='Ki', item= Cc1ccc(/C=C/COC(c2ccccc2)(c2ccccc2)C(Oc2nc(C)cc(C)n2)C(=O)O)cc1 (centres undefined) )
0.32

====

- studyTarget: Endothelin-1 receptor (Homo sapiens)
- Sequence (P25101 whole entry): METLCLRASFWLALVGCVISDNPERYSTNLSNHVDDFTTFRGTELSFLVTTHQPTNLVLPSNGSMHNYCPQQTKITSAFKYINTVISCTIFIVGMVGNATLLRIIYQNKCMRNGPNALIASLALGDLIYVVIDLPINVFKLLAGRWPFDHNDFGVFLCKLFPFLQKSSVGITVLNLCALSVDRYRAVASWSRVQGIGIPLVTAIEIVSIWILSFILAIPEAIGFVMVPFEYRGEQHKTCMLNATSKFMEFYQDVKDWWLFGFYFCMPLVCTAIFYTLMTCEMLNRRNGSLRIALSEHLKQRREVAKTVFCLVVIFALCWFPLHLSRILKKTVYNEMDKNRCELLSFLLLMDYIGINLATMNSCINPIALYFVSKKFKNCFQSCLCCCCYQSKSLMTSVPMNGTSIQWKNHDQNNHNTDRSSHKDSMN
- methodDescription: Inhibition of [125I]-ET-1 (ETA assay) binding to human cloned Endothelin A receptor in CHO cells
testReadout: pKi
The value called pKi is obtained by taking minus log10 of the concentration in mol/L.

Test system Endothelin-1 receptor (Homo sapiens); read-out pKi; what value for CCc1ccc(C(OCCc2ccc(OC)cc2)(c2ccc(CC)cc2)C(Oc2nc(C)cc(C)n2)C(=O)O)cc1 (centres undefined) ?
6.60

Test system Endothelin-1 receptor (Homo sapiens); read-out pKi; what value for COc1cc(CCOC(c2ccccc2)(c2ccccc2)C(Oc2nc(C)cc(C)n2)C(=O)O)ccc1OCC(=O)O (centres undefined) ?
8.72

Test system Endothelin-1 receptor (Homo sapiens); read-out pKi; what value for Cc1ccc(/C=C/COC(c2ccccc2)(c2ccccc2)C(Oc2nc(C)cc(C)n2)C(=O)O)cc1 (centres undefined) ?
7.49

Test system Endothelin-1 receptor (Homo sapiens); read-out pKi; what value for Cc1cc(C)nc(OC(C(=O)O)C(OCCc2ccccc2)(c2ccccc2)c2ccccc2)n1 (centres undefined) ?
7.60

====

- studyTarget: UniProt P24530
- methodDescription: Inhibition of [125I]ET-3 (ETB assay) binding to human cloned Endothelin B receptor in CHO cells
Mark criterion met only for Ki values smaller than 70 nM; exact matches and larger values are criterion not met.

Just wondering, is Ki of Cc1cc(C)nc(OC(C(=O)O)C(OCCc2ccc(Cl)cc2)(c2ccccc2)c2ccccc2)n1 (centres undefined) below 70 nM?
criterion not met

Just wondering, is Ki of Cc1ccc(CCCOC(c2ccccc2)(c2ccccc2)C(Oc2nc(C)cc(C)n2)C(=O)O)cc1 (centres undefined) below 70 nM?
criterion not met

Just wondering, is Ki of COc1cc(CCOC(c2ccccc2)(c2ccccc2)C(Oc2nc(C)cc(C)n2)C(=O)O)ccc1OCC(=O)O (centres undefined) below 70 nM?
criterion met

Just wondering, is Ki of COc1cc(CCOC(c2ccccc2)(c2ccccc2)C(Oc2nc(C)cc(C)n2)C(=O)O)cc(OC)c1OC (centres undefined) below 70 nM?
criterion met

Just wondering, is Ki of CCOc1ccc(CCOC(c2ccccc2)(c2ccccc2)C(Oc2nc(C)cc(C)n2)C(=O)O)cc1OC (centres undefined) below 70 nM?
criterion met

Just wondering, is Ki of CCc1ccc(C(OCCc2ccc(OC)cc2)(c2ccc(CC)cc2)C(Oc2nc(C)cc(OC)n2)C(=O)O)cc1 (centres undefined) below 70 nM?
criterion not met

Just wondering, is Ki of COc1ccc(COC(c2ccccc2)(c2ccccc2)C(Oc2nc(C)cc(C)n2)C(=O)O)cc1OC (centres undefined) below 70 nM?
criterion met

Just wondering, is Ki of CCc1ccc(C(OCCc2ccc(OC)c(OC)c2)(c2ccc(CC)cc2)C(Oc2nc(C)cc(OC)n2)C(=O)O)cc1 (centres undefined) below 70 nM?
criterion met

====

- System: Rattus norvegicus
- methodDescription: Percent reduction of big ET-induced blood pressure increase in drug treated rats with LU 135252 and 10 mg/Kg of compound given perorally was reported as (AUD 30 min) in mmHg(min)
- Format: functional
Provide the recorded BP increase for the entries that follow.
Write down the numeric answer in % and omit the unit.

# get_value(readout='BP increase', item= COc1ccc(CCOC(c2ccccc2)(c2ccccc2)C(Oc2nc(C)cc(C)n2)C(=O)O)cc1 (stereo unspecified) )
33

# get_value(readout='BP increase', item= COc1ccc(CCOC(c2ccccc2)(c2ccccc2)[C@H](Oc2nc(C)cc(C)n2)C(=O)O)cc1OC )
61

# get_value(readout='BP increase', item= COc1cc(CCOC(c2ccccc2)(c2ccccc2)C(Oc2nc(C)cc(C)n2)C(=O)O)ccc1OCC(=O)O (stereo unspecified) )
14

# get_value(readout='BP increase', item= CCOc1ccc(CCOC(c2ccccc2)(c2ccccc2)C(Oc2nc(C)cc(C)n2)C(=O)O)cc1OC (stereo unspecified) )
68

# get_value(readout='BP increase', item= COc1cc(CCOC(c2ccccc2)(c2ccccc2)C(Oc2nc(C)cc(C)n2)C(=O)O)cc(OC)c1OC (stereo unspecified) )
25

# get_value(readout='BP increase', item= COc1ccc(CCOC(c2ccccc2)(c2ccccc2)C(Oc2nc(C)cc(C)n2)C(=O)O)cc1OC (stereo unspecified) )
58

====

- studyTarget: Endothelin-1 receptor (Homo sapiens, UniProt P25101)
- methodDescription: Inhibition of [125I]-ET-1 (ETA assay) binding to human cloned Endothelin A receptor in CHO cells
pKi: −log10 of the molar value.
Use 8 as the dividing line for pKi, with the line itself on the 1 side and lower values as 0.

Reported pKi at or above 8? CCc1ccc(C(OCCc2ccc(OC)cc2)(c2ccc(CC)cc2)C(Oc2nc(C)cc(OC)n2)C(=O)O)cc1 (stereo not drawn)
0

Reported pKi at or above 8? CCc1ccc(C(OCCc2ccc(OC)c(OC)c2)(c2ccc(CC)cc2)C(Oc2nc(C)cc(OC)n2)C(=O)O)cc1 (stereo not drawn)
0

Reported pKi at or above 8? COc1ccc(CCOC(c2ccc(Cl)cc2)(c2ccc(Cl)cc2)C(Oc2nc3c(c(OC)n2)CCC3)C(=O)O)cc1OC (stereo not drawn)
0

Reported pKi at or above 8? COc1ccc(OC(c2ccccc2)(c2ccccc2)C(Oc2nc(C)cc(C)n2)C(=O)O)cc1OC (stereo not drawn)
1

Reported pKi at or above 8? CCOc1ccc(CCOC(c2ccccc2)(c2ccccc2)C(Oc2nc(C)cc(C)n2)C(=O)O)cc1OC (stereo not drawn)
1

Reported pKi at or above 8? COc1ccc(CCOC(c2ccccc2)(c2ccccc2)[C@H](Oc2nc(C)cc(C)n2)C(=O)O)cc1OC
1

Reported pKi at or above 8? COc1ccc(CCOC(c2ccccc2)(c2ccccc2)C(Oc2nc(C)cc(OC)n2)C(=O)O)cc1 (stereo not drawn)
1

Reported pKi at or above 8? Cc1cc(C)nc(OC(C(=O)O)C(OCCc2ccc(O)cc2)(c2ccccc2)c2ccccc2)n1 (stereo not drawn)
1

====

- studyTarget: Endothelin receptor type B (Homo sapiens, UniProt P24530)
- methodDescription: Inhibition of [125I]ET-3 (ETB assay) binding to human cloned Endothelin B receptor in CHO cells
Provide the recorded pKi for the entries that follow.
The value called pKi is obtained by taking minus log10 of the concentration in mol/L.

# get_value(readout='pKi', item= CCc1ccc(C(OCCc2ccc(OC)cc2)(c2ccc(CC)cc2)C(Oc2nc(C)cc(C)n2)C(=O)O)cc1 (stereo not drawn) )
6.71

# get_value(readout='pKi', item= COc1ccc(CCOC(c2ccc(Cl)cc2)(c2ccc(Cl)cc2)C(Oc2nc3c(c(OC)n2)CCC3)C(=O)O)cc1OC (stereo not drawn) )
6.67

# get_value(readout='pKi', item= Cc1cc(C)nc(OC(C(=O)O)C(OCCc2ccc(O)cc2)(c2ccccc2)c2ccccc2)n1 (stereo not drawn) )
7.79

# get_value(readout='pKi', item= COc1ccc(CCOC(c2ccccc2)(c2ccccc2)C(Oc2nc(C)cc(C)n2)C(=O)O)cc1 (stereo not drawn) )
7.62

# get_value(readout='pKi', item= Cc1cc(C)nc(OC(C(=O)O)C(OCCc2ccccc2)(c2ccccc2)c2ccccc2)n1 (stereo not drawn) )
6.64

# get_value(readout='pKi', item= COc1cc(/C=C/COC(c2ccccc2)(c2ccccc2)C(Oc2nc(C)cc(C)n2)C(=O)O)cc(OC)c1OC (stereo not drawn) )
7.70

# get_value(readout='pKi', item= Cc1ccc(CCOC(c2ccccc2)(c2ccccc2)C(Oc2nc(C)cc(C)n2)C(=O)O)cc1 (stereo not drawn) )
7.26

# get_value(readout='pKi', item= COc1ccc(CCOC(c2ccccc2)(c2ccccc2)[C@H](Oc2nc(C)cc(C)n2)C(=O)O)cc1OC )
8.32
